Molecular target: HsPDF (Homo sapiens, UniProt Q9HBH1)
Construct: A 63 amino acid N-terminally truncated human peptide deformylase (HsPDF); 6His (C); made in house; host or cells: E. coli BL21 (DE3), co-transformed with the GroES/EL chaperone plasmid
Sequence (Q9HBH1 64-243 limits assumed): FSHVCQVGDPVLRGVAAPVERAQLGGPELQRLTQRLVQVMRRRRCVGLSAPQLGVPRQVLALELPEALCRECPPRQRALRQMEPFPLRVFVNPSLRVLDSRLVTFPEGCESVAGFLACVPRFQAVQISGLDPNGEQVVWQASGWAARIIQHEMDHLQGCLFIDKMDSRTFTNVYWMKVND
Assay: FP binding assay (fluorescence polarization, probe SKI 267088), specificity profiling and dose response
Details: dose response, 12 point doubling dilutions, upper limit 100 μM
endpoint.label: IC50
Output should be the measured figure followed by the unit it is expressed in.

API: value(readout=IC50, system=HsPDF (Homo sapiens, UniProt Q9HBH1)) for record `COc1cc(C(=O)c2coc3c2C(=O)C(=O)C(Br)=C3Br)cc(OC)c1OC`
5.2 µM

API: value(readout=IC50, system=HsPDF (Homo sapiens, UniProt Q9HBH1)) for record `O=C1C=Cc2occ(C(=O)c3ccccc3)c2C1=O`
59 µM

----------
experiment: Aqueous solubility limit by laser nephelometry; assay type: physicochemical; settings: aqueous solution (composition not stated), kinetic from dmso stock, upper limit 10 μM
endpoint.label: solubility (µM)
The figure you give is taken to be in µM; do not add the unit.

Requested field: solubility. Item: `O=C1C(=O)c2c(C(=O)c3ccc(Cl)c(Cl)c3)coc2C(Cl)=C1Cl`
5

----------
target: HsPDF (Homo sapiens, UniProt Q9HBH1); construct: A 63 amino acid N-terminally truncated human peptide deformylase (HsPDF); 6His (C); made in house; host or cells: E. coli BL21 (DE3), co-transformed with the GroES/EL chaperone plasmid; assay: HsPDF %I 10uM
Please respond with reported HsPDF %I 10uM for every item in the list.
The figure you give is taken to be in %I; do not add the unit.

Requested field: HsPDF %I 10uM. Item: `COc1ccc(C(=O)c2coc3ccc(O)c(Br)c23)cc1`
3

Requested field: HsPDF %I 10uM. Item: `COc1ccc(C(=O)c2coc3c(Br)cc(O)c(Br)c23)cc1`
0

Requested field: HsPDF %I 10uM. Item: `COc1ccc(C(=O)c2coc3c(Br)c(Br)c(O)cc23)cc1OC`
3

Requested field: HsPDF %I 10uM. Item: `COc1ccc(C(=O)c2coc3c(Cl)c(Cl)c(O)cc23)cc1OC`
-24

Requested field: HsPDF %I 10uM. Item: `COc1ccc(C(=O)c2coc3ccc(O)cc23)cc1OC`
-6

Requested field: HsPDF %I 10uM. Item: `COc1ccc(C(=O)c2coc3cc(Br)c(O)cc23)cc1`
-17

Requested field: HsPDF %I 10uM. Item: `COc1cc(C(=O)c2coc3ccc(O)cc23)cc(OC)c1OC`
4

Requested field: HsPDF %I 10uM. Item: `COc1ccc(C(=O)c2coc3c2C(=O)C(=O)c2ccccc2-3)cc1OC`
18

Requested field: HsPDF %I 10uM. Item: `O=C(c1ccccc1)c1coc2c(Cl)c(Cl)c(O)cc12`
8

Requested field: HsPDF %I 10uM. Item: COc1ccc(C(=O)c2coc3cc(Cl)c(O)c(Cl)c23)cc1 [SKC-BF-Int10D]
21

Requested field: HsPDF %I 10uM. Item: `COc1cc(C(=O)c2coc3c2C(=O)C(=O)c2ccccc2-3)cc(OC)c1OC`
25

Requested field: HsPDF %I 10uM. Item: `COc1ccc(C(=O)c2coc3c2C(=O)C(=O)C(Br)=C3)cc1`
29

Requested field: HsPDF %I 10uM. Item: COc1ccc(C(=O)c2coc3c(Cl)c(Cl)c(O)cc23)cc1 [SKC-BF-Int10F]
4
